Assign growth to each entry below.
Test system: ACHN renal
Assay: NCI-60 one-dose screen, 48 h (100 = growth as untreated, 0 = no growth, -100 = all killed)
Details: 10 µM unless noted
This is part of a sample that, as a whole, favours compounds with a hit. Of some 83,000 tested, about 20% had one in any assay.
Could you give me the number in %? Just the number is fine.

# input Record "Cc1nn(-c2ccc(Cl)cc2)c(=O)n1CCOc1ccccc1Cl" : what is its growth with ACHN renal?
# output 78.9

# input Record O=C(COc1ccccc1)N1N=C(c2ccc(Cl)cc2)CC1c1c[nH]c2ccccc12 (stereo unspecified) : what is its growth with ACHN renal?
# output 60.8

# input Record "COc1ccc(N=C2NN=C(c3ccc(F)cc3)CS2)cc1OC" : what is its growth with ACHN renal?
# output 93.7

# input Record CCC1CCc2nc3sc(C(=O)Nc4ccccc4C)c(N)c3cc2C1 (stereo unspecified) : what is its growth with ACHN renal?
# output 47.4

# input Record "Clc1ccc(/C=C/c2nc(N3CCOCC3)c3nc(Cl)c(Cl)cc3n2)cc1" : what is its growth with ACHN renal?
# output 51.5

# input Record "CC(=O)n1cc([C@H]2CC[C@H](c3cn(C(C)=O)c4ccccc34)c3c2[nH]c2ccccc32)c2ccccc21" : what is its growth with ACHN renal?
# output 77.9

# input Record "COc1ccc2c(c1)NC(=O)CN2c1nc(NC2CC2)nc2ccccc12" : what is its growth with ACHN renal?
# output 24.9

# input Record "COc1ccc(-c2nc(-c3nc4ccc(F)cc4[nH]3)cc3c2[nH]c2ccccc23)cc1" : what is its growth with ACHN renal?
# output 32.1

# input Record "CC/C(=C(\c1ccc(O)cc1)c1ccc(OCCN(C)CCN(C)C(=O)CCC(=O)c2c(C)[nH]c(/C=C3\N=C(c4ccc[nH]4)C=C3OC)c2C)cc1)c1ccccc1" : what is its growth with ACHN renal?
# output 95.5

# input Record "Cc1oc2nc[nH]c(=O)c2c1C(=O)/C=C/c1ccc(Cl)cc1Cl" : what is its growth with ACHN renal?
# output 66.4

# input Record COc1ccc2c(c1)C=CC(C#N)N2C(=O)c1ccccc1 (stereo unspecified) : what is its growth with ACHN renal?
# output 33.9

# input Record "Nc1nc(Cl)c2c(ncn2Cc2ccc(CCl)cc2)n1" : what is its growth with ACHN renal?
# output 83.3

# input Record N#CC1=C(N)n2nc(-c3ccncc3)nc2NC1c1cccc2ccccc12 (stereo unspecified) : what is its growth with ACHN renal?
# output 95.2

# input Record CCOC(=O)C1=C(C)NC(=O)NC1c1ccc(OCC(=O)N/N=C/c2ccc(Cl)cc2)cc1 (stereo unspecified) : what is its growth with ACHN renal?
# output 96.8

# input Record CC1(C)OC2COC3(C(=O)O)OC(C)(C)OC3C2O1 (stereo unspecified) : what is its growth with ACHN renal?
# output 94.4

# input Record "O=C(Nc1cccc(C(F)(F)F)c1)Nc1ccc(OCc2nnc(-c3ccccc3)o2)c(F)c1" : what is its growth with ACHN renal?
# output 6.63

# input Record "CCSc1nnc(Nc2ccc(C(C)C)cc2)s1" : what is its growth with ACHN renal?
# output 91.1

# input Record "COc1cc(Cn2c(SCCC(=O)Nc3ccc(F)cc3)nc3ccccc3c2=O)cc(OC)c1OC" : what is its growth with ACHN renal?
# output 81.9

# input Record "COc1ccc(Cn2c(SC)nc(=O)n(Cc3ccc(Cl)cc3)c2=O)cc1" : what is its growth with ACHN renal?
# output 96.3

# input Record "O=C(O)Cc1ccc2c(c1)Cc1cccnc1O2" : what is its growth with ACHN renal?
# output 111

# input Record "NC(=O)c1c(NC(=O)c2ccc3c(c2)OCO3)sc2c1CCC(=O)C2" : what is its growth with ACHN renal?
# output -57.7

* * *

Test system: MALME-3M melanoma
Assay: NCI-60 one-dose screen, 48 h (100 = growth as untreated, 0 = no growth, -100 = all killed)
Details: 10 µM unless noted
Protocol: Cells are grown in 96 well plates and exposed to the test compound for 48 hours. Compounds are tested at a single concentration, which is 10^-5 M for most compounds. The reported endpoint is percent growth (GI% or GIPRCNT), where numbers from 0 - 100% represent growth inhibition, and numbers from -100% - 0 represent cell death. For example, a value of 40 represents 60% growth inhibition. A value of 0 means no net growth occurred over the course of the experiment. […]
Compounds without any hit were thinned out: in the full panel of roughly 83,000, 20% have a hit.
attribute_measured: growth (%)
Could you give me the number in %? Just the number is fine.

# input Recorded growth of C#CCN1C(=O)/C(=c2\sc3n(c2=O)NC2C(N=3)N(CC)C(=O)N2CC)c2ccccc21 (centres undefined) , please.
# output 51.5

# input Recorded growth of "C/C(=C\c1csc(C)n1)[C@@H]1C[C@@H]2O[C@]2(C)CCC[C@H](C)[C@H](O)[C@@H](C)C(=O)C(C)(C)[C@@H](O)CC(=O)N1" , please.
# output 66.3

# input Recorded growth of COc1ccc(C2CC(c3cccs3)=NN2c2ccc(S(=O)(=O)NC(=O)Nc3ccc(C)cc3)cc2)cc1 (centres undefined) , please.
# output 40.6

# input Recorded growth of "NS(=O)(=O)c1ccc(CN2C(=O)c3cccc4cccc(c34)C2=O)cc1" , please.
# output 112

# input Recorded growth of "C=C1C(=O)O[C@H]2[C@H]1CC/C(COC(=O)NCCc1ccc(OC)cc1)=C\CC[C@@]1(C)O[C@@H]21" , please.
# output -8.71

# input Recorded growth of CC(Br)C(OC(=O)c1ccccc1Cl)c1cc2c(cc1Br)OCO2 (centres undefined) , please.
# output 92.9

# input Recorded growth of "CCCCCCOc1ccc(C2(Cl)c3ccccc3N(C)c3ccccc32)cc1" , please.
# output -21.5

# input Recorded growth of "CC[C@]1(O)C[C@@H]2CN(Cc3c([nH]c4ccccc34)[C@@](C(=O)OC)(c3cc4c(cc3OC)N(C)[C@H]3[C@@](O)(C(=O)OC)[C@H](OC(C)=O)[C@]5(CC)[C@@H]6C[C@@H]6CN6CC[C@]43[C@@H]65)C2)C1" , please.
# output 38

# input Recorded growth of "O=C1C2=C(C(=O)c3c(O)ccc(O)c31)N(c1cccnc1)Cc1ccccc1O2" , please.
# output -80.5

# input Recorded growth of CCCCCCC[C@@H](O)CC(=O)N[C@H](CCCCN)C(=O)N[C@H](Cc1c[nH]c2ccccc12)C(=O)NC(CCCCN)C(=O)N[C@H](CC(C)C)C(=O)N[C@H](Cc1ccccc1)C(=O)N[C@H](CCCCN)C(=O)N[C@H](CCCCN)C(=O)N[C@H](CC(C)C)C(=O)N1CCCC1C(=O)N[C@H](CCCCN)C(=O)N[C@H](Cc1ccccc1)C(=O)N[C@H](CC(C)C)C(=O)N[C@H](Cc1c[nH]cn1)C(=O)N[C@H](CC(C)C)C(=O)N[C@H](C)C(=O)N[C@H](CCCCN)C(=O)N[C@H](CCCCN)C(=O)N[C@H](Cc1ccccc1)C(=O)O (some centres undefined) , please.
# output -2.57

# input Recorded growth of "CN(C)CCCNC(=O)C(c1ccccc1)c1ccccc1" , please.
# output 104

# input Recorded growth of CCN1C(=O)N(CC)C2C1NN=c1s/c(=C3\C(=O)N(C4CCCC4)c4ccccc43)c(=O)n12 (centres undefined) , please.
# output 57.4

# input Recorded growth of "c1cncc(CNc2ccccc2-c2nnc(Nc3ccc4c(c3)OCCO4)o2)c1" , please.
# output 80.2

# input Recorded growth of "COC(=O)c1ccc(C)cc1" , please.
# output 108

# input Recorded growth of "CCCCCC/C=C\CCCCCCCCOc1ccc(CCOP(=O)(O)OCC[N+](C)(C)C)cc1" , please.
# output 103

# input Recorded growth of "O=C(/C=C/CN1CCOCC1)Nc1cc2c(Nc3cccc(Cl)c3F)ncnc2cc1OCCOC(F)F" , please.
# output 64.4

# input Recorded growth of "CCOc1ccc(/C=C/C=N/NC(N)=S)cc1" , please.
# output 82

# input Recorded growth of CC[C@H](C)[C@@H]1NC(=O)[C@H]([C@@H](C)O)NC(=O)C(Cc2ccccc2)NC(=O)[C@@H]2CCCN2C(=O)C(C(C)C)NC(=O)C(Cc2ccccc2)NC(=O)CNC(=O)[C@@H]2CCCN2C1=O (some centres undefined) , please.
# output 64

# input Recorded growth of "COc1ccc(/C=N/NC(=O)Cn2c(Cc3cccc4ccccc34)nc3ccccc32)cc1" , please.
# output 92.4

# input Recorded growth of Nc1c(C(=O)Nc2cccc([N+](=O)[O-])c2)sc2nc3c(cc12)C(O)CCC3 (centres undefined) , please.
# output 65.8

# input Recorded growth of "O=C(N/N=C/c1c(Cl)cccc1Cl)c1ccccc1Nc1ccnc(C(F)(F)F)c1" , please.
# output 81

# input Recorded growth of "CCN(C(=O)c1cc2ncccc2[nH]1)[C@H]1CCC[C@@H](NCc2cccc(F)c2)C1" , please.
# output 92

# input Recorded growth of CCN1C(=O)N(CC)C2C1NN=c1s/c(=C\c3cccc(F)c3)c(=O)n12 (centres undefined) , please.
# output 48.7

# input Recorded growth of CCCCCCCCCCCCCCCCC(Br)C(=O)O (centres undefined) , please.
# output 98.3

# input Recorded growth of "O=C(CNc1c(Cl)cccc1Cl)Nc1ccc(-c2nc3ccccc3s2)cc1" , please.
# output -50

# input Recorded growth of "O=C(Nc1ccc(OCc2nnc(-c3ccc(Cl)cc3)o2)c(F)c1)Nc1ccc(Cl)c(Cl)c1" , please.
# output 33.4

# input Recorded growth of "c1cc(-c2ccc3c(c2)OCO3)n2nccc2n1" , please.
# output 104

# input Recorded growth of "COc1cc(Cn2c(-c3nonc3N)nc3ccccc32)ccc1C" , please.
# output 80.7

# input Recorded growth of "C=C1C(=O)O[C@H]2[C@H]1CC/C(COC(=O)NCc1cc(OC)c(OC)c(OC)c1)=C\CC[C@@]1(C)O[C@@H]21" , please.
# output 101

# input Recorded growth of "C=CCN=C1NC(=O)/C(=C/c2cc(C(C)(C)C)c(O)c(C(C)(C)C)c2)S1" , please.
# output 75.4

# input Recorded growth of "O=C(CN1CCOCC1)Nc1ccc(-c2nc3ccccc3s2)cc1" , please.
# output 117

# input Recorded growth of "COc1ccc2c(c1)NC(=O)CN2c1nc(NC2CC2)nc2ccccc12" , please.
# output 70.3

# input Recorded growth of "CCOC(=O)CC/C(C)=N\Nc1ccc([N+](=O)[O-])cc1" , please.
# output 104

# input Recorded growth of CCC(c1cccc(Br)c1)C(C(=O)O)c1ccc(OC)cc1 (centres undefined) , please.
# output 101
